test system: SUDIPGVI (diffuse intrinsic pontine glioma line); assay: growth inhibition (% activity, log2 RLU normalised to DMSO / staurosporine); higher = more growth inhibition; settings: 33 µM
reported_endpoint: growth inhibition (%)

molecule="NCC(O)c1ccc(O)cc1 (stereo not given)" system_name=SUDIPGVI reported_endpoint="growth inhibition" observed_measurement=-3.26
molecule="C=CCN.ClCC1CO1 (stereo not given)" system_name=SUDIPGVI reported_endpoint="growth inhibition" observed_measurement=1.49
molecule=C/C=C(\C)C(=O)N[C@@H](c1ccccc1)[C@@H](O)C(=O)O[C@H]1C[C@@]2(O)[C@@H](OC(=O)c3ccccc3)[C@@H]3[C@]4(OC(C)=O)CO[C@@H]4C[C@H](O)[C@@]3(C)C(=O)[C@H](OC(C)=O)C(=C1C)C2(C)C system_name=SUDIPGVI reported_endpoint="growth inhibition" observed_measurement=0.972
molecule=C#C[C@]1(O)CC[C@H]2[C@@H]3CCC4=CC(=O)CC[C@]4(C)[C@H]3CC[C@@]21C system_name=SUDIPGVI reported_endpoint="growth inhibition" observed_measurement=2.6
molecule=N.N.[Cl][Pt][Cl] system_name=SUDIPGVI reported_endpoint="growth inhibition" observed_measurement=-1.15
molecule=Cc1cccc(Cc2c[nH]cn2)c1C system_name=SUDIPGVI reported_endpoint="growth inhibition" observed_measurement=6.15
molecule="CCC1(c2ccc(N)cc2)CCC(=O)NC1=O (stereo not given)" system_name=SUDIPGVI reported_endpoint="growth inhibition" observed_measurement=0.634
molecule="CC(=O)OC12COC1CC(O)C1(C)C(=O)C(O)C3=C(C)C(O)CC(O)(C(OC(=O)c4ccccc4)C21)C3(C)C (stereo not given)" system_name=SUDIPGVI reported_endpoint="growth inhibition" observed_measurement=1.87
molecule=Cc1cc(O)ccc1Cl system_name=SUDIPGVI reported_endpoint="growth inhibition" observed_measurement=0.283
molecule=C[C@]12CC[C@H](O)CC1=CC[C@@H]1[C@@H]2CC[C@]2(C)C(=O)CC[C@@H]12 system_name=SUDIPGVI reported_endpoint="growth inhibition" observed_measurement=3.47

###

test system: DIPGX9 (diffuse intrinsic pontine glioma line); test: growth inhibition (% activity, log2 RLU normalised to DMSO / staurosporine); higher = more growth inhibition; settings: 33 µM
reported_endpoint: growth inhibition

compound="CC(=O)OC1CN2CCC1CC2 (stereo unspecified)" observed_measurement=1.28%
compound=O=C(O[C@H]1C[N+]2(CCCOc3ccccc3)CCC1CC2)C(O)(c1cccs1)c1cccs1 observed_measurement=-1.04%
compound=COc1ccc(C(=O)N2CCCC2=O)cc1 observed_measurement=0.251%
compound=C[N+]1(C)[C@@H]2C[C@@H](OC(=O)[C@H](CO)c3ccccc3)C[C@H]1[C@@H]1O[C@@H]12 observed_measurement=0.849%
compound="O=P1(NCCCl)OCCCN1CCCl (stereo unspecified)" observed_measurement=0.389%
compound=C=CC[C@]1(O)CC[C@H]2[C@@H]3CCC4=CC(=O)CCC4=C3C=C[C@@]21C observed_measurement=1.01%
compound=C#C[C@]1(O)CC[C@H]2[C@@H]3CCC4=CC(=O)CC[C@]4(C)[C@H]3CC[C@@]21C observed_measurement=3.05%
compound="O=P1(N(CCCl)CCCl)NCCCO1 (stereo unspecified)" observed_measurement=-0.609%
compound=CCCCCCCCCCCCCCCC[n+]1ccccc1 observed_measurement=52.2%
compound=O=S(=O)(F)Cc1ccccc1 observed_measurement=-0.877%
compound="CC(=O)OC12COC1CC(O)C1(C)C(=O)C(O)C3=C(C)C(O)CC(O)(C(OC(=O)c4ccccc4)C21)C3(C)C (stereo unspecified)" observed_measurement=9.41%

###

system: HNSC; test: growth inhibition (% activity, log2 RLU normalised to DMSO / staurosporine); higher = more growth inhibition; conditions: 33 µM
reported_endpoint: growth inhibition (%)

compound=C#C[C@]1(O)C=C[C@H]2[C@@H]3CCC4=CC(=O)CC[C@@H]4[C@H]3CC[C@@]21CC scale_unit=% observed_measurement=0.901
compound=OC(c1ccccc1)(c1ccccc1)C1CCNCC1 scale_unit=% observed_measurement=-1.42
compound="NCC(O)c1ccc(O)cc1 (centres undefined)" scale_unit=% observed_measurement=22.2
compound=CC(=O)Nc1cc([As](=O)(O)O)ccc1O scale_unit=% observed_measurement=-0.382
compound=COc1cc2c(cc1OC)[C@@]13CCN4CC5=CCO[C@H]6CC(=O)N2[C@H]1[C@H]6[C@H]5C[C@H]43 scale_unit=% observed_measurement=19.6
compound=C[N+](C)(C)CCCCCCCCCC[N+](C)(C)C scale_unit=% observed_measurement=1.52
compound=Cc1cccc(C)c1NC1=NCCCS1 scale_unit=% observed_measurement=-4.34
compound=C[C@@H]1O[C@@H](O[C@H]2C[C@@H](O)[C@]3(CO)[C@H]4[C@H](O)C[C@]5(C)[C@@H](C6=CC(=O)OC6)CC[C@]5(O)[C@@H]4CC[C@]3(O)C2)[C@H](O)[C@H](O)[C@H]1O scale_unit=% observed_measurement=59.4
compound="CN1C(=O)COc2c(C(=O)NC3CN4CCC3CC4)cc(Cl)cc21 (centres undefined)" scale_unit=% observed_measurement=0.849
compound="CC(C)c1c(CN(C)C(C)Cc2ccccc2)n(C)n(-c2ccccc2)c1=O (centres undefined)" scale_unit=% observed_measurement=48.4
compound=c1ccc2c(c1)sc1ccccc12 scale_unit=% observed_measurement=-4.08
compound="CN1C2CC(O)CC1C1OC12 (centres undefined)" scale_unit=% observed_measurement=-2.89
compound=C=C(C)[C@@H]1[C@H]2OC(=O)[C@@H]1[C@]1(O)C[C@H]3O[C@]34C(=O)O[C@H]2[C@]14C scale_unit=% observed_measurement=-1.08
compound=CCCCCCCCCCCCCCCC[n+]1ccccc1 scale_unit=% observed_measurement=76.6
compound=CN1[C@@H]2C[C@@H](OC(=O)[C@H](CO)c3ccccc3)C[C@H]1[C@@H]1O[C@@H]12 scale_unit=% observed_measurement=23.8
compound=O=c1[nH]c2ccccc2n1CCCN1CCC(n2c(=O)[nH]c3cc(Cl)ccc32)CC1 scale_unit=% observed_measurement=1.78
compound="NCC(CC(=O)O)c1ccc(Cl)cc1 (centres undefined)" scale_unit=% observed_measurement=33.3
compound=C[N+]1(C)[C@@H]2C[C@@H](OC(=O)[C@H](CO)c3ccccc3)C[C@H]1[C@@H]1O[C@@H]12 scale_unit=% observed_measurement=-1.37
compound="CN1C(=O)CCS(=O)(=O)C1c1ccc(Cl)cc1 (centres undefined)" scale_unit=% observed_measurement=2.59
compound=Cc1cccc(C)c1NC(=O)CN1CCCC1=O scale_unit=% observed_measurement=6.05
compound=CN(C)C(=O)Oc1cccc([N+](C)(C)C)c1 scale_unit=% observed_measurement=-0.376
compound=C=C1C[C@@H]2[C@H](CC[C@]3(C)C(=O)CC[C@@H]23)[C@@]2(C)C=CC(=O)C=C12 scale_unit=% observed_measurement=-0.552
compound=CCOC(=O)c1cncn1[C@H](C)c1ccccc1 scale_unit=% observed_measurement=3.19
compound=CCC1(C)CC(=O)NC(=O)C1 scale_unit=% observed_measurement=7
compound=COc1ccc(C(=O)N2CCCC2=O)cc1 scale_unit=% observed_measurement=0.808
compound=CCCN1C[C@H](CSC)C[C@@H]2c3cccc4[nH]cc(c34)C[C@H]21 scale_unit=% observed_measurement=-2.99
compound=Cc1cccc(Cc2c[nH]cn2)c1C scale_unit=% observed_measurement=4.93
compound="CCC1(c2cccc(O)c2)CCCCN(C)C1 (centres undefined)" scale_unit=% observed_measurement=18.5
compound="CC(=O)OC12COC1CC(O)C1(C)C(=O)C(O)C3=C(C)C(O)CC(O)(C(OC(=O)c4ccccc4)C21)C3(C)C (centres undefined)" scale_unit=% observed_measurement=11.9

###

test system: DIPGX7 (H3.3 K27M diffuse intrinsic pontine glioma line); experiment: growth inhibition (% activity, log2 RLU normalised to DMSO / staurosporine); higher = more growth inhibition; conditions: 33 µM
Recorded measurements of growth inhibition, one per entry
reported_endpoint: growth inhibition

mol=CC(=O)O[C@H]1C[C@@H]2CC[C@@H]3[C@H](CC[C@@]4(C)[C@H]3C[C@H]([N+]3(C)CCCCC3)[C@@H]4OC(C)=O)[C@@]2(C)C[C@@H]1[N+]1(C)CCCCC1 observed_measurement=-0.188%
mol=CN(C)[C@@H]1C(=O)C(C(N)=O)=C(O)[C@@]2(O)C(=O)C3=C(O)c4c(O)ccc(Cl)c4[C@@](C)(O)[C@H]3C[C@@H]12 observed_measurement=3.71%
mol=N[C@@H]1C[C@H]1c1ccccc1.N[C@H]1C[C@@H]1c1ccccc1 observed_measurement=2.09%

###

test system: SUDIPGXIII (diffuse intrinsic pontine glioma line); assay: growth inhibition (% activity, log2 RLU normalised to DMSO / staurosporine); higher = more growth inhibition; conditions: 33 µM
reported_endpoint: growth inhibition (%)

compound=O=C(O)c1nn(Cc2ccc(Cl)cc2Cl)c2ccccc12 observed_measurement=-0.117
compound=c1ccc2c(c1)sc1ccccc12 observed_measurement=1.54
compound=C[C@@H]1CC[C@H]2[C@@H](C)C(=O)O[C@@H]3O[C@@]4(C)CC[C@@H]1[C@]32OO4 observed_measurement=20.5
compound=COc1ccc(C(=O)N2CCCC2=O)cc1 observed_measurement=-1.15
compound=C[C@]12CC[C@H]3[C@@H](CC[C@@]45O[C@@H]4C(O)=C(C#N)C[C@]35C)[C@@H]1CC[C@@H]2O observed_measurement=-1.34
compound="CN1c2ccccc2C(NCCCCCCC(=O)O)c2ccc(Cl)cc2S1(=O)=O (stereo not given)" observed_measurement=0.605
compound="CN(C)C1C(=O)C(C(N)=O)=C(O)C2(O)C(=O)C3=C(O)c4c(O)cccc4C(C)(O)C3CC12 (stereo not given)" observed_measurement=-1.63
compound=C=C1C[C@@H]2[C@H](CC[C@]3(C)C(=O)CC[C@@H]23)[C@@]2(C)C=CC(=O)C=C12 observed_measurement=0.875
compound=Cc1cccc(C)c1NC(=O)CN1CCCC1=O observed_measurement=-1.38
compound=CCCCCCCCCCCCCCCC[n+]1ccccc1 observed_measurement=72.8
